Target: hMAO-B (Homo sapiens, UniProt P27338)
Sequence (P27338 1-520): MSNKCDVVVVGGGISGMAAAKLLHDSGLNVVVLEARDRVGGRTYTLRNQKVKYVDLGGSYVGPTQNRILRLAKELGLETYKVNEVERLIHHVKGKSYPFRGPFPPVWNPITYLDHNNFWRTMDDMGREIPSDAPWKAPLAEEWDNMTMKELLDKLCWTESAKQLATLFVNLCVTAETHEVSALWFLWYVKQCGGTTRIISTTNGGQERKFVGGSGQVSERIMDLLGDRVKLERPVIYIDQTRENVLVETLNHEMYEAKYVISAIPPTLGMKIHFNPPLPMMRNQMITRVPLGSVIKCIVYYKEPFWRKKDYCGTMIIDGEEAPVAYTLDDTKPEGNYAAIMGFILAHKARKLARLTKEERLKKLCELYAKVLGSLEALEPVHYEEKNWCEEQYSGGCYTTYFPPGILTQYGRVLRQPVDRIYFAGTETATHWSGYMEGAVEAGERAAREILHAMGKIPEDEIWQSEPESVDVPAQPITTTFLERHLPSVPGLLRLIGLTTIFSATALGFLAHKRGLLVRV
Test: hMAO-B inhibition, IC50 determination (kynuramine fluorescence)
Format: biochemical
Details: ratio (IC50 hMAO-A)/(IC50 hMAO-B)
For each record, write down the corresponding Selectivity index (SI) for the MAO-B isoform.
Just the number, please, no unit attached.

Data request, read-out Selectivity index (SI) for the MAO-B isoform, for `CC(=NNc1nc(-c2cccc([N+](=O)[O-])c2)cs1)c1ccccc1`
666

What does the data say about its Selectivity index (SI) for the MAO-B isoform? Entry: `CC(=NNc1nc(-c2cccc([N+](=O)[O-])c2)cs1)c1cccs1`
922

What does the record list as Selectivity index (SI) for the MAO-B isoform for `CC(=O)c1ccc(C(C)=NNc2nc(-c3cccc([N+](=O)[O-])c3)cs2)cc1` ?
5.4

I'd like to know its Selectivity index (SI) for the MAO-B isoform. The compound in question is `O=[N+]([O-])c1cccc(-c2csc(NN=Cc3cccs3)n2)c1`
8412

For the compound shown here, `CC(=NNc1nc(-c2cccc([N+](=O)[O-])c2)cs1)c1ccccc1[N+](=O)[O-]` , give the reported Selectivity index (SI) for the MAO-B isoform.
3477

====

Biological target: UniProt P27338
Sequence (P27338 1-520): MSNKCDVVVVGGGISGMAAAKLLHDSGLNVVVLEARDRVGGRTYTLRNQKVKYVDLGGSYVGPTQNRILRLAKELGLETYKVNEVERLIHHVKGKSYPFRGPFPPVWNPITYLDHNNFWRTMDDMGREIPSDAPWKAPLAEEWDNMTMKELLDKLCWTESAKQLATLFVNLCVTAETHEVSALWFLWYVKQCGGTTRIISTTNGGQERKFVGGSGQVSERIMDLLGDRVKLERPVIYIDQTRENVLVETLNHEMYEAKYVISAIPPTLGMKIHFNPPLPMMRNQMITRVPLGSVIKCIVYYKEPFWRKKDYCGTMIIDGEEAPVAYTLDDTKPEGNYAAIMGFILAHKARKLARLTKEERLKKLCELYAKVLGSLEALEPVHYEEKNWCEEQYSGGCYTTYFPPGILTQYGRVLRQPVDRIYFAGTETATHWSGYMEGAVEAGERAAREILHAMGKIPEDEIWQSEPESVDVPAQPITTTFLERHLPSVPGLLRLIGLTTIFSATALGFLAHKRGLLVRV
Assay: hMAO-B inhibition, IC50 determination (kynuramine fluorescence)
Assay type: biochemical
Readout type: pIC50
The quantity pIC50 is defined as the negative base-10 logarithm of the molar concentration.

Give the measured pIC50 of CC(=NNc1nc(-c2cccc([N+](=O)[O-])c2)cs1)c1ccsc1 [Compound 5] .
8.60

Could you share which pIC50 value was measured for Nc1cccc(-c2csc(N/N=C/c3cccs3)n2)c1 [Compound 37] ?
5.57

For CC(=NNc1nc(-c2cccc([N+](=O)[O-])c2)cs1)c1ccccc1 [Compound 11] , what is its reported pIC50?
8.15

Look at this molecule and give its reported pIC50. CC(=NNc1nc(-c2cccc([N+](=O)[O-])c2)cs1)c1cccs1 [Compound 4]
8.74
